read-out: Pro-epidermal growth factor (Homo sapiens) (UniProt P01133); test: LTEA_HepaRG_EGF: Life Technologies and Expression Analysis (LTEA) Assay for Epidermal growth factor (EGF) using HepaRG (AID 2283489); conditions: mRNA level, 48 h; actives raise or lower the signal
Calls of active or inactive are those of the source. The calls were made as follows: active = hit-call score of the fitted dose curve at least 0.9, where 1 is the maximum; inactive = score below 0.9.
Can you answer with just one of these options? active, inactive

Asked: Write down the call the test reported for this compound. Item: COc1ccc(S(=O)(=O)N2C(=O)[C@@](c3ccccc3OC)(N3C[C@H](O)C[C@H]3C(=O)N(C)C)c3cc(Cl)ccc32)c(OC)c1
Given back: inactive

Asked: // outcome(item) with item = CC(=O)C(C)=CC1C(C)=CCCC1(C)C (stereo not drawn)
Given back: inactive

Asked: Assay outcome for NS(=O)(=O)c1cc2c(cc1Cl)NCNS2(=O)=O : what was it?
Given back: inactive

Asked: Per the assay record, what outcome was assigned to CCOC(=O)C(C)(C)Oc1ccc(Cl)cc1 ?
Given back: inactive

Asked: Test call for this compound, please: OC[C@@H](O)[C@@H](O)[C@H](O)[C@H](O)CO
Given back: inactive

Asked: Fill in: this test's call for FC(F)(F)C(F)(F)C(F)(F)C(F)(F)C(F)(F)C(F)(F)CCI is ___
Given back: inactive

Asked: Per the assay record, what outcome was assigned to Cc1cc(NC(=O)C(=O)O)cc(C)c1Oc1ccc(O)c2c1CCC2 ?
Given back: inactive

Asked: Test call for this compound, please: COc1ccc2c(c1)c(CC(=O)O)c(C)n2C(=O)c1ccc(Cl)cc1
Given back: inactive

Asked: GET /call?item= CC1(C)NC(=O)NC1=O returns the recorded outcome of this test.
Given back: inactive

Asked: Answer briefly: the call reported for CC(=O)Oc1ccccc1C(=O)O in this assay.
Given back: inactive

Asked: I'd appreciate the recorded outcome for Cc1ccc(Cl)cc1 from this test.
Given back: inactive

Asked: What outcome does the record of this test show for Oc1ccc2ccccc2c1N=Nc1ccccc1 ?
Given back: inactive

Asked: Look up the recorded call for CC(=O)OC/C=C(\C)CCC=C(C)C in this test.
Given back: inactive

Asked: Which outcome did this test record for the compound Cc1cc(=O)[nH]c(=S)[nH]1 ?
Given back: inactive

Asked: Recorded call for CCCCc1ccc2c(n1)[C@@H](c1ccc(OC)cc1C[C@H](C)C(=O)O)[C@H](C(=O)O)[C@H]2c1ccc2c(c1)OCO2 ?
Given back: inactive

Asked: Field: outcome | Entry: Cc1c(C(=O)O)c(O)cc2c1C(=O)c1c(O)c([C@@H]3O[C@H](CO)[C@@H](O)[C@H](O)[C@H]3O)c(O)c(O)c1C2=O
Given back: inactive

Asked: Just curious, what result did CCOc1ccc2c(c1)C(C)=CC(C)(C)N2 get here?
Given back: inactive

Asked: Please state the recorded outcome for this compound: Cc1ccc(C(C)C)c(O)c1
Given back: inactive

Asked: What call does the record list for c1cc(-c2ccncc2)ccn1 ?
Given back: inactive

Asked: Would you mind telling me which call this test gave Cc1ccc(C)c(O)c1C ?
Given back: inactive

Asked: Which outcome was assigned to NC(=O)Cn1c(=O)cc(CCN2CCN(c3nccc4sccc34)CC2)c2ccc(F)cc21 in this test?
Given back: inactive

Asked: Any idea what this test logged for O=C(O)CCCCC(=O)O ?
Given back: inactive

Asked: Dear colleague, could you share the recorded outcome for CCCCCCCCCCCC(=O)OC when you have a moment?
Given back: inactive

Asked: Could you check what this test reported for CC1(C)CC(N=C=O)CC(C)(CN=C=O)C1 (stereo not drawn) ?
Given back: inactive

Asked: Per the assay record, what outcome was assigned to CCCCCCC(=O)OCC ?
Given back: inactive

Asked: # outcome recorded in this test, key = Nc1nc(N)c2nc(CNc3ccc(C(=O)N[C@@H](CCC(=O)O)C(=O)O)cc3)cnc2n1
Given back: inactive

Asked: Called result for CCCCCC(=O)O
Given back: inactive

Asked: State the result this test recorded for Clc1cc(Cl)c(Cl)cc1Cl .
Given back: inactive

Asked: Hey, what did the test say about Cc1oc(-c2ccccc2)nc1CCOc1cccc2c1ccn2CCC(=O)O ?
Given back: inactive

Asked: # lookup: test call for CCCCCCCC=O
Given back: inactive

Asked: Look up the recorded call for CNCc1cc(F)ccc1Oc1ccc(Cl)c(Cl)c1 in this test.
Given back: active

Asked: What outcome does the record of this test show for CC(C)c1ccc(C(=O)N=C(N)N)cc1S(C)(=O)=O ?
Given back: active

Asked: Please let me know the test result on file for CCCCOC(=O)CCCCCCCCC(=O)OCCCC .
Given back: inactive

Asked: Look up the recorded call for CCCCCCCCCCO in this test.
Given back: inactive

Asked: Please let me know the test result on file for O=C(N[C@@H](Cc1ccccc1)[C@@H](O)C(=O)N1C[C@@H](O)[C@@H](O)C1)c1cc2cc(Cl)ccc2[nH]1 .
Given back: inactive

Asked: Can you look up the reported call for COc1ccc(C)cc1N for me?
Given back: inactive

Asked: Recorded test call requested for Nc1ccccc1N
Given back: inactive

Asked: What was the test verdict on Cc1ccccc1Cl ?
Given back: inactive

Asked: Which result was noted for this compound in the test: COCCOCCOC
Given back: active

Asked: Called result for C[Si]1(C)O[Si](C)(C)O[Si](C)(C)O[Si](C)(C)O1
Given back: inactive

Asked: Dear all, I need the recorded test outcome for CC=Cc1ccc(O)c(OC)c1 , thank you.
Given back: inactive

Asked: Could you please tell me the result logged for O=[N+]([O-])C(CO)(CO)CO in this assay?
Given back: inactive

Asked: I would be grateful if you could indicate the recorded call for O=c1[nH]cc(F)c(=O)[nH]1 .
Given back: inactive
